Molecular target: G-protein coupled bile acid receptor 1 (Homo sapiens)
Sequence (Q8TDU6 whole entry): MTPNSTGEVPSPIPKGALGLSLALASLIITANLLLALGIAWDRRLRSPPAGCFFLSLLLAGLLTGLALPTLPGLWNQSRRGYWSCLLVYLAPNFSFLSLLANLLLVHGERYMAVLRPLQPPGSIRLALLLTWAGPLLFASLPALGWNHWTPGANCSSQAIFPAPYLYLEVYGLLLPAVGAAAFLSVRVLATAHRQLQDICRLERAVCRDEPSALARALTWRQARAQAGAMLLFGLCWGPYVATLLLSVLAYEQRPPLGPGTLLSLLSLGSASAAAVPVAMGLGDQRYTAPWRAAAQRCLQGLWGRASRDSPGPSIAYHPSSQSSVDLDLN
Assay: Agonist activity at human TGR5 expressed in HEK293 cells co-expressing CRE after 5.5 hrs by luciferase reporter gene assay
Assay type: functional, cell-based
pEC50: −log10 of the molar value.
quantity name: pEC50

Sample records with pEC50:
line notation	observed value
Cc1coc2ccc(Oc3ccncc3C(=O)N3CCN(C4CC4)c4ccccc43)cc12	9.35
Cc1c(/C=C/C(=O)O)oc2ccc(Cl)c(Oc3ccncc3C(=O)N3CCN(C4CC4)c4ccccc43)c12	7.60
CCOC(=O)/C=C/c1oc2ccc(Cl)c(Oc3ccncc3C(=O)N3CCN(C4CC4)c4ccccc43)c2c1C	8.05
O=C(O)Cc1coc2cc(Cl)c(Oc3ccncc3C(=O)N3CCN(C4CC4)c4ccccc43)cc12	5.87
O=C(c1cnccc1Oc1cccc2cccnc12)N1CCN(C2CC2)c2ccccc21	6.75

A. O=C(c1cnccc1Oc1cccc2[nH]ccc12)N1CCN(C2CC2)c2ccccc21
B. O=C(c1cnccc1Oc1ccc2[nH]ccc2c1)N1CCN(C2CC2)c2ccccc21
C. O=C(c1cnccc1Oc1ccc2ncccc2c1)N1CCN(C2CC2)c2ccccc21
Qu. Returns the items ordered by pEC50, from maximum to minimum. Please list each label once, in the requested order.
Ans. C, A, B

A. CCOC(=O)Cc1coc2cc(Cl)c(Oc3ccncc3C(=O)N3CCN(C4CC4)c4ccccc43)cc12
B. O=C(c1cnccc1Oc1ccc2ccoc2c1)N1CCN(C2CC2)c2ccccc21
C. CCOC(=O)CNC(=O)/C=C/c1oc2ccc(Cl)c(Oc3ccncc3C(=O)N3CCN(C4CC4)c4ccccc43)c2c1C
D. O=C(c1cnccc1Oc1ccc2ccccc2c1)N1CCN(C2CC2)c2ccccc21
Qu. Write the entries in order, lowest recorded pEC50 first. Please list each label once, in the requested order.
Ans. D, B, C, A

I. Cc1c(CCC(=O)O)oc2ccc(Cl)c(Oc3ccncc3C(=O)N3CCN(C4CC4)c4ccccc43)c12
II. O=C(c1cnccc1Oc1ccc2occc2c1)N1CCN(C2CC2)c2ccccc21
Qu. Between the entries labelled I and II , which has a larger pEC50 value on record? Give the label under which the chosen entry appears.
Ans. II
(II: 7.97, I: 7.46)

1. COC(=O)CCc1coc2cc(Cl)c(Oc3ccncc3C(=O)N3CCN(C4CC4)c4ccccc43)cc12
2. O=C(c1cnccc1Oc1cccc2ncccc12)N1CCN(C2CC2)c2ccccc21
Qu. // compare measured pEC50 between 1 and 2 ; output the lower one Give the label under which the chosen entry appears.
Ans. 2
